tested on: Giardia duodenalis trophozoites, ATCC PRA-251; assay: G. duodenalis trophozoite proliferation, ATCC PRA-251 (metronidazole resistant); conditions: ATCC PRA-251; in combination with ascorbic acid
This listing pairs compounds with measured ΣFIC50.
I'd appreciate a reply containing only the number, no unit.

Field: example entries. Status: answers known.
Name the reported ΣFIC50 value associated with the compound O=C(O)[C@]1(O)C[C@@H](O)[C@@H](O)[C@H](O)C1
0.95

Quick one: O=C1O[C@@H]([C@H](O)[C@H](O)CO)[C@@H](O)[C@H]1O
1.25

Quick one: Cc1cc(OCCCC(C)(C)C(=O)O)c(C)cc1O
1.1

Quick one: O=C(O)[C@H]1O[C@@H](Oc2cccc(O)c2O)[C@H](O)[C@@H](O)[C@@H]1O
0.18

Quick one: O=C(O)C[C@H](C(=O)O)[C@H]1c2c(cc(O)c(O)c2O)C(=O)O[C@@H]1C(=O)O
0.52

Then this compound:
Name the reported ΣFIC50 value associated with the compound O=C(O)c1cc(O)c(O)c(O)c1
0.32

====

system: human dermal fibroblast; settings: compound alone; 24 hours exposure
experimental_readout: Toxicity Compound Alone HDF

Field: example entries. Status: answers known.
Name the reported Toxicity Compound Alone HDF value associated with the molecule [K+].[K+].[O]=[Cr](=[O])([O-])[O][Cr](=[O])(=[O])[O-] [potassium dichromate, Potassium dichromate, reference compound]
42 µg/mL

Quick one: O=C(O)C[C@H](C(=O)O)[C@H]1c2c(cc(O)c(O)c2O)C(=O)O[C@@H]1C(=O)O [Chebulic acid, chebulic acid]
380 µg/mL

Quick one: O=C1O[C@H](CO)[C@@H](O)[C@H]1O [Ribolactone, ribonolactone]
CND

Quick one: O=C(O)[C@H]1O[C@@H](Oc2cccc(O)c2O)[C@H](O)[C@@H](O)[C@@H]1O [DPGA]
CND

Quick one: O=C1O[C@@H]([C@H](O)[C@H](O)CO)[C@@H](O)[C@H]1O [Glucohepatonic acid lactone, glucohepatonic acid-1,4-lactone]
CND

New cases:
Name the reported Toxicity Compound Alone HDF value associated with the molecule Cc1cc(OCCCC(C)(C)C(=O)O)c(C)cc1O [HMDP]
CND

====

test system: human dermal fibroblast; settings: in combination with ascorbic acid
This listing pairs molecules with measured Toxicity Compound/ascorbic acid combination HDF.

Field: example entries. Status: answers known.
Name the reported Toxicity Compound/ascorbic acid combination HDF value associated with the molecule O=C1O[C@@H]([C@H](O)[C@H](O)CO)[C@@H](O)[C@H]1O [Glucohepatonic acid lactone, glucohepatonic acid-1,4-lactone]
>500 µg/mL

Quick one: O=C(O)C[C@H](C(=O)O)[C@H]1c2c(cc(O)c(O)c2O)C(=O)O[C@@H]1C(=O)O [Chebulic acid, chebulic acid]
375 µg/mL

Quick one: O=C(O)[C@H]1O[C@@H](Oc2cccc(O)c2O)[C@H](O)[C@@H](O)[C@@H]1O [DPGA]
>500 µg/mL

Then this molecule:
Name the reported Toxicity Compound/ascorbic acid combination HDF value associated with the molecule Cc1cc(OCCCC(C)(C)C(=O)O)c(C)cc1O [HMDP]
>500 µg/mL

====

test system: Artemia nauplii; details: compound alone; 24 hours exposure
experimental_readout: Toxicity Compound Alone ALA

Field: example entries. Status: answers known.
Name the reported Toxicity Compound Alone ALA value associated with the compound O=C(O)[C@H]1O[C@@H](Oc2cccc(O)c2O)[C@H](O)[C@@H](O)[C@@H]1O [DPGA]
CND

Quick one: O=C1O[C@H](CO)[C@@H](O)[C@H]1O [Ribolactone, ribonolactone]
CND

Quick one: O=C1O[C@H](CO)[C@@H](O)[C@H](O)[C@H]1O [Gluconolactone, gluconolactone]
CND

Quick one: O=C(O)C[C@H](C(=O)O)[C@H]1c2c(cc(O)c(O)c2O)C(=O)O[C@@H]1C(=O)O [Chebulic acid, chebulic acid]
165 µg/mL

Quick one: O=C(O)[C@]1(O)C[C@@H](O)[C@@H](O)[C@H](O)C1 [Quinic acid, quinic acid]
CND

Quick one: O=C1O[C@@H]([C@H](O)[C@H](O)CO)[C@@H](O)[C@H]1O [Glucohepatonic acid lactone, glucohepatonic acid-1,4-lactone]
CND

New cases:
Name the reported Toxicity Compound Alone ALA value associated with the compound O=C(O)c1cc(O)c(O)c(O)c1 [Gallic acid, gallic acid]
132 µg/mL

Quick one: c1ncc2[nH]cnc2n1 [Purine, purine]
CND

Quick one: Cc1cc(OCCCC(C)(C)C(=O)O)c(C)cc1O [HMDP]
CND

Quick one: [K+].[K+].[O]=[Cr](=[O])([O-])[O][Cr](=[O])(=[O])[O-] [potassium dichromate, Potassium dichromate, reference compound]
37 µg/mL

====

tested on: Giardia duodenalis trophozoites, sheep S2 strain; experiment: G. duodenalis trophozoite proliferation, sheep S2 strain; details: read-out: IC50 Single Compound; Sheep S2 Strain; compound alone
experimental_readout: pIC50
Note on units: pIC50 is unitless, being -log10 of a concentration expressed in mol/L.

Name the reported pIC50 value associated with the molecule O=C(O)C[C@H](C(=O)O)[C@H]1c2c(cc(O)c(O)c2O)C(=O)O[C@@H]1C(=O)O [Chebulic acid, chebulic acid]
2.44

Quick one: O=C(O)[C@H]1O[C@@H](Oc2cccc(O)c2O)[C@H](O)[C@@H](O)[C@@H]1O [DPGA]
3.81

New cases:
Name the reported pIC50 value associated with the molecule O=C1O[C@@H]([C@H](O)[C@H](O)CO)[C@@H](O)[C@H]1O [Glucohepatonic acid lactone, glucohepatonic acid-1,4-lactone]
2.00

====

system: Giardia duodenalis trophozoites, sheep S2 strain; test: G. duodenalis trophozoite proliferation, sheep S2 strain; settings: Sheep S2 Strain; compound alone
experimental_readout: IC50 Single Compound (µg/mL)
Return type: number; implicit unit µg/mL.

Any idea what IC50 Single Compound came out for O=C(O)C[C@H](C(=O)O)[C@H]1c2c(cc(O)c(O)c2O)C(=O)O[C@@H]1C(=O)O [Chebulic acid, chebulic acid] on Giardia duodenalis trophozoites, sheep S2 strain?
1283

Quick one: O=C1O[C@@H]([C@H](O)[C@H](O)CO)[C@@H](O)[C@H]1O [Glucohepatonic acid lactone, glucohepatonic acid-1,4-lactone]
1746

Quick one: O=C(O)[C@H]1O[C@@H](Oc2cccc(O)c2O)[C@H](O)[C@@H](O)[C@@H]1O [DPGA]
47

Then this compound:
Any idea what IC50 Single Compound came out for O=C(O)c1cc(O)c(O)c(O)c1 [Gallic acid, gallic acid] on Giardia duodenalis trophozoites, sheep S2 strain?
1156

====

tested on: Giardia duodenalis trophozoites, ATCC203333; assay: G. duodenalis trophozoite proliferation, ATCC203333 (metronidazole sensitive); details: ATCC203333; in combination with ascorbic acid
experimental_readout: Class of Interaction

Field: example entries. Status: answers known.
Name the reported Class of Interaction value associated with the molecule O=C(O)C[C@H](C(=O)O)[C@H]1c2c(cc(O)c(O)c2O)C(=O)O[C@@H]1C(=O)O [Chebulic acid, chebulic acid]
Additive

Quick one: O=C(O)c1cc(O)c(O)c(O)c1 [Gallic acid, gallic acid]
Synergy

Quick one: O=C(O)[C@]1(O)C[C@@H](O)[C@@H](O)[C@H](O)C1 [Quinic acid, quinic acid]
Additive

Quick one: O=C(O)[C@H]1O[C@@H](Oc2cccc(O)c2O)[C@H](O)[C@@H](O)[C@@H]1O [DPGA]
Synergy

New cases:
Name the reported Class of Interaction value associated with the molecule Cc1cc(OCCCC(C)(C)C(=O)O)c(C)cc1O [HMDP]
Additive

====

test system: Artemia nauplii; details: in combination with ascorbic acid
This listing pairs compounds with measured Toxicity Compound/ascorbic acid combination ALA.

Any idea what Toxicity Compound/ascorbic acid combination ALA came out for O=C(O)[C@]1(O)C[C@@H](O)[C@@H](O)[C@H](O)C1 on Artemia nauplii?
>500 µg/mL

Quick one: Cc1cc(OCCCC(C)(C)C(=O)O)c(C)cc1O
>500 µg/mL

Quick one: O=C(O)c1cc(O)c(O)c(O)c1
147 µg/mL

Quick one: O=C1O[C@@H]([C@H](O)[C@H](O)CO)[C@@H](O)[C@H]1O
>500 µg/mL

New cases:
Any idea what Toxicity Compound/ascorbic acid combination ALA came out for O=C(O)[C@H]1O[C@@H](Oc2cccc(O)c2O)[C@H](O)[C@@H](O)[C@@H]1O on Artemia nauplii?
>500 µg/mL

Quick one: O=C(O)C[C@H](C(=O)O)[C@H]1c2c(cc(O)c(O)c2O)C(=O)O[C@@H]1C(=O)O
224 µg/mL

====

test system: Giardia duodenalis trophozoites, ATCC PRA-251; test: G. duodenalis trophozoite proliferation, ATCC PRA-251 (metronidazole resistant); conditions: ATCC PRA-251; in combination with ascorbic acid
experimental_readout: Class of Interaction

Field: example entries. Status: answers known.
Name the reported Class of Interaction value associated with the compound O=C(O)c1cc(O)c(O)c(O)c1
Synergy

Quick one: O=C(O)C[C@H](C(=O)O)[C@H]1c2c(cc(O)c(O)c2O)C(=O)O[C@@H]1C(=O)O
Additive

Quick one: O=C(O)[C@H]1O[C@@H](Oc2cccc(O)c2O)[C@H](O)[C@@H](O)[C@@H]1O
Synergy

Quick one: Cc1cc(OCCCC(C)(C)C(=O)O)c(C)cc1O
Independent

Quick one: O=C1O[C@@H]([C@H](O)[C@H](O)CO)[C@@H](O)[C@H]1O
Independent

Then this compound:
Name the reported Class of Interaction value associated with the compound O=C(O)[C@]1(O)C[C@@H](O)[C@@H](O)[C@H](O)C1
Additive
